- assay-protocol: ATG_Sox_CIS: Attagene CIS-FACTORIAL HepG2 Assay for human SRY-box transcription factor (SOX) (AID 2282960)
- test-conditions: HepG2 Attagene cis-factorial SOX reporter, mRNA; actives raise or lower the signal
- Procedure: ATG_CIS is a cell-based, multiplexed-readout assay that uses HepG2, a human liver cell line, with measurements taken at 24 hours after chemical dosing in a 24-well plate.ATG_Sox_CIS is one of 52 assay component(s) measured or calculated from the ATG_CIS assay. […] This assay endpoint, ATG_Sox_CIS, was analyzed with bidirectional fitting relative to DMSO as the negative control and baseline of activity. […]
Activity calls are given as the source filed them. The calls were made as follows: active = hit-call score of the fitted dose curve at least 0.9, where 1 is the maximum; inactive = score below 0.9.

[
  {
    "compound": "Nc1ccc(S(=O)(=O)Nc2cnc3ccccc3n2)cc1",
    "outcome": "inactive"
  },
  {
    "compound": "O=C(OCc1ccccc1)c1ccccc1",
    "outcome": "inactive"
  },
  {
    "compound": "O=C1NC(=O)C2CC=CCC12 (stereo not given)",
    "outcome": "inactive"
  },
  {
    "compound": "COC(=O)[C@]1(C)CCC[C@@]2(C)[C@H]1CC=C1C=C(C(C)C)CC[C@@H]12",
    "outcome": "inactive"
  },
  {
    "compound": "C/C=C(\\C)C(=O)OCC/C=C\\CC",
    "outcome": "inactive"
  }
]

* * *

- study-target: Cellular tumor antigen p53 (Homo sapiens) (UniProt P04637)
- Sequence (P04637 whole entry, looked up): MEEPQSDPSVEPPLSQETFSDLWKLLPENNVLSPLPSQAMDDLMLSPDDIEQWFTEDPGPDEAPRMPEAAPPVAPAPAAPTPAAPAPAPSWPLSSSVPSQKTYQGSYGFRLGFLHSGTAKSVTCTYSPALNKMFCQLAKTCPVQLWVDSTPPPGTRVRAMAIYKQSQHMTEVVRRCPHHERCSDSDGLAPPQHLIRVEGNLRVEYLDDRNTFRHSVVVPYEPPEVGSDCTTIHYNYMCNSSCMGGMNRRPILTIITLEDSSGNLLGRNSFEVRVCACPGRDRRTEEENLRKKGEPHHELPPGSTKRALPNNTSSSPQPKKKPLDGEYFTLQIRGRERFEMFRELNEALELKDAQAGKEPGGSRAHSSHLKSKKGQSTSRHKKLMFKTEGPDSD
- assay-protocol: TOX21_p53_BLA_p4_ratio: Tox21 HCT-116 p53 Agonism Beta-lactamase Assay, Ratio, Phase 4 (AID 2283601)
Records with an inconclusive call do not appear. The source made the active and inactive calls. How the source made its calls: active means hit-call score of the fitted dose curve at least 0.9, where 1 is the maximum; inconclusive means response in the unintended direction; inactive means score below 0.9.
Classes used: class 1 (active), class 0 (inactive)

[
  {
    "molecule": "C=Cc1c(C)c2cc3[nH]c(cc4nc(cc5nc(cc1[nH]2)C(C)=C5CCC(=O)O)C(CCC(=O)O)=C4C)c(C)c3C=C",
    "study-target": "Cellular tumor antigen p53 (Homo sapiens) (UniProt P04637)",
    "label": "class 0"
  },
  {
    "molecule": "C=CCNC1=C2C[C@@H](C)C[C@H](OC)[C@H](O)[C@@H](C)/C=C(\\C)[C@H](OC(N)=O)[C@@H](OC)/C=C\\C=C(/C)C(=O)NC(=CC1=O)C2=O",
    "study-target": "Cellular tumor antigen p53 (Homo sapiens) (UniProt P04637)",
    "label": "class 1"
  },
  {
    "molecule": "CC(C)(C)NCCNC(C)(C)C",
    "study-target": "Cellular tumor antigen p53 (Homo sapiens) (UniProt P04637)",
    "label": "class 0"
  },
  {
    "molecule": "O=[N+]([O-])c1cccc(S(=O)(=O)O)c1",
    "study-target": "Cellular tumor antigen p53 (Homo sapiens) (UniProt P04637)",
    "label": "class 0"
  },
  {
    "molecule": "C=C(C)C(=O)OCCCCCCCCCCCCC",
    "study-target": "Cellular tumor antigen p53 (Homo sapiens) (UniProt P04637)",
    "label": "class 0"
  },
  {
    "molecule": "CO/N=C(\\C(=O)N[C@@H]1C(=O)N2C(C(=O)[O-])=C(C[n+]3cccc4c3CCC4)CS[C@H]12)c1csc(N)n1",
    "study-target": "Cellular tumor antigen p53 (Homo sapiens) (UniProt P04637)",
    "label": "class 0"
  },
  {
    "molecule": "CC(=O)[C@H]1CC[C@H]2[C@@H]3C=CC4=CC(=O)CC[C@@]4(C)[C@@H]3CC[C@]12C",
    "study-target": "Cellular tumor antigen p53 (Homo sapiens) (UniProt P04637)",
    "label": "class 0"
  },
  {
    "molecule": "C=C[C@]1(C)C[C@@H](OC(=O)CSC(C)(C)CNC(=O)[C@H](N)C(C)C)[C@]2(C)[C@H](C)CC[C@]3(CCC(=O)[C@H]32)[C@@H](C)[C@@H]1O",
    "study-target": "Cellular tumor antigen p53 (Homo sapiens) (UniProt P04637)",
    "label": "class 0"
  },
  {
    "molecule": "C[C@H](CCCC(C)(C)O)[C@H]1CC[C@H]2[C@@H]3CC=C4C[C@@H](O)CC[C@]4(C)[C@H]3CC[C@]12C",
    "study-target": "Cellular tumor antigen p53 (Homo sapiens) (UniProt P04637)",
    "label": "class 0"
  },
  {
    "molecule": "COC(=O)c1ccccc1C(=O)c1ccc(OCCN2CCCCC2)cc1",
    "study-target": "Cellular tumor antigen p53 (Homo sapiens) (UniProt P04637)",
    "label": "class 0"
  },
  {
    "molecule": "O=C(O)c1cc(=O)c2c3nc4ccccc4oc-3cc(=O)c2[nH]1",
    "study-target": "Cellular tumor antigen p53 (Homo sapiens) (UniProt P04637)",
    "label": "class 0"
  },
  {
    "molecule": "CC1=C(C)C(=O)C(CCCCC#CCCCC#CCO)=C(C)C1=O",
    "study-target": "Cellular tumor antigen p53 (Homo sapiens) (UniProt P04637)",
    "label": "class 0"
  },
  {
    "molecule": "CC(C)(C)NCC(O)c1ccc(O)c(CO)n1 (stereo unspecified)",
    "study-target": "Cellular tumor antigen p53 (Homo sapiens) (UniProt P04637)",
    "label": "class 0"
  },
  {
    "molecule": "N#Cc1c(F)cccc1F",
    "study-target": "Cellular tumor antigen p53 (Homo sapiens) (UniProt P04637)",
    "label": "class 0"
  },
  {
    "molecule": "Cc1cc(O)cc2c1O[C@](C)(CCC[C@H](C)CCC[C@H](C)CCCC(C)C)CC2",
    "study-target": "Cellular tumor antigen p53 (Homo sapiens) (UniProt P04637)",
    "label": "class 0"
  },
  {
    "molecule": "CN1CCCCC1CCN1c2ccccc2Sc2ccc(S(C)=O)cc21 (stereo unspecified)",
    "study-target": "Cellular tumor antigen p53 (Homo sapiens) (UniProt P04637)",
    "label": "class 0"
  },
  {
    "molecule": "O=S(c1cc(Cl)cc(Cl)c1O)c1cc(Cl)cc(Cl)c1O",
    "study-target": "Cellular tumor antigen p53 (Homo sapiens) (UniProt P04637)",
    "label": "class 1"
  },
  {
    "molecule": "C[C@@H]1CN(CCCn2c3ccccc3c3ccccc32)C[C@H](C)N1",
    "study-target": "Cellular tumor antigen p53 (Homo sapiens) (UniProt P04637)",
    "label": "class 0"
  },
  {
    "molecule": "O=C(O)c1ccc(CO)o1",
    "study-target": "Cellular tumor antigen p53 (Homo sapiens) (UniProt P04637)",
    "label": "class 0"
  },
  {
    "molecule": "CCN(CC)CCNc1ccc(CO)c2sc3ccccc3c(=O)c12",
    "study-target": "Cellular tumor antigen p53 (Homo sapiens) (UniProt P04637)",
    "label": "class 1"
  },
  {
    "molecule": "Cc1cccc2nccnc12",
    "study-target": "Cellular tumor antigen p53 (Homo sapiens) (UniProt P04637)",
    "label": "class 0"
  },
  {
    "molecule": "OCCOCCOCCOCCOCCO",
    "study-target": "Cellular tumor antigen p53 (Homo sapiens) (UniProt P04637)",
    "label": "class 0"
  },
  {
    "molecule": "COc1cc(-c2ccc(=O)[nH]n2)ccc1OC(F)F",
    "study-target": "Cellular tumor antigen p53 (Homo sapiens) (UniProt P04637)",
    "label": "class 0"
  },
  {
    "molecule": "CC1(C)S[C@@H]2[C@H](NC(=O)C(c3ccccc3)S(=O)(=O)O)C(=O)N2[C@H]1C(=O)O (stereo partly specified)",
    "study-target": "Cellular tumor antigen p53 (Homo sapiens) (UniProt P04637)",
    "label": "class 0"
  },
  {
    "molecule": "CCOC(=O)[C@H](CCc1ccccc1)N[C@@H](C)C(=O)N1[C@H](C(=O)O)C[C@H]2CCCC[C@@H]21",
    "study-target": "Cellular tumor antigen p53 (Homo sapiens) (UniProt P04637)",
    "label": "class 0"
  },
  {
    "molecule": "COc1cc(/C=C/C(=O)O[C@H]2CC[C@]34C[C@]35CC[C@]3(C)[C@@H]([C@H](C)CCC=C(C)C)CC[C@@]3(C)[C@@H]5CC[C@H]4C2(C)C)ccc1O",
    "study-target": "Cellular tumor antigen p53 (Homo sapiens) (UniProt P04637)",
    "label": "class 1"
  }
]

* * *

- assay-protocol: CCTE_Mundy_HCI_Cortical_Synap_Neur_Matur_NeuriteLength: CCTE's Synaptogenesis and Neurite Maturation Assay in rat cortical cells for Neurite Length, Mundy Lab (AID 2284214)
Activity calls are given as the source filed them. Rule for the calls: active = hit-call score of the fitted dose curve at least 0.9, where 1 is the maximum; inactive = score below 0.9.
Classes used: TRUE = active, FALSE = inactive

[
  {
    "compound": "CN(C)C(=O)C(CCN1CCC(O)(c2ccc(Cl)cc2)CC1)(c1ccccc1)c1ccccc1",
    "label": "TRUE"
  },
  {
    "compound": "[Cl-].[Cl-].[NH2-].[NH2-].[Pt+4]",
    "label": "FALSE"
  },
  {
    "compound": "CC(C)(C)NCC(O)c1cc(O)cc(O)c1 (centres undefined)",
    "label": "FALSE"
  },
  {
    "compound": "CNCCC(Oc1ccc(C(F)(F)F)cc1)c1ccccc1 (centres undefined)",
    "label": "TRUE"
  }
]
